target_or_system: DNA topoisomerase II beta, full length (human, UniProt Q02880 1-1626)
Sequence (Q02880 whole entry): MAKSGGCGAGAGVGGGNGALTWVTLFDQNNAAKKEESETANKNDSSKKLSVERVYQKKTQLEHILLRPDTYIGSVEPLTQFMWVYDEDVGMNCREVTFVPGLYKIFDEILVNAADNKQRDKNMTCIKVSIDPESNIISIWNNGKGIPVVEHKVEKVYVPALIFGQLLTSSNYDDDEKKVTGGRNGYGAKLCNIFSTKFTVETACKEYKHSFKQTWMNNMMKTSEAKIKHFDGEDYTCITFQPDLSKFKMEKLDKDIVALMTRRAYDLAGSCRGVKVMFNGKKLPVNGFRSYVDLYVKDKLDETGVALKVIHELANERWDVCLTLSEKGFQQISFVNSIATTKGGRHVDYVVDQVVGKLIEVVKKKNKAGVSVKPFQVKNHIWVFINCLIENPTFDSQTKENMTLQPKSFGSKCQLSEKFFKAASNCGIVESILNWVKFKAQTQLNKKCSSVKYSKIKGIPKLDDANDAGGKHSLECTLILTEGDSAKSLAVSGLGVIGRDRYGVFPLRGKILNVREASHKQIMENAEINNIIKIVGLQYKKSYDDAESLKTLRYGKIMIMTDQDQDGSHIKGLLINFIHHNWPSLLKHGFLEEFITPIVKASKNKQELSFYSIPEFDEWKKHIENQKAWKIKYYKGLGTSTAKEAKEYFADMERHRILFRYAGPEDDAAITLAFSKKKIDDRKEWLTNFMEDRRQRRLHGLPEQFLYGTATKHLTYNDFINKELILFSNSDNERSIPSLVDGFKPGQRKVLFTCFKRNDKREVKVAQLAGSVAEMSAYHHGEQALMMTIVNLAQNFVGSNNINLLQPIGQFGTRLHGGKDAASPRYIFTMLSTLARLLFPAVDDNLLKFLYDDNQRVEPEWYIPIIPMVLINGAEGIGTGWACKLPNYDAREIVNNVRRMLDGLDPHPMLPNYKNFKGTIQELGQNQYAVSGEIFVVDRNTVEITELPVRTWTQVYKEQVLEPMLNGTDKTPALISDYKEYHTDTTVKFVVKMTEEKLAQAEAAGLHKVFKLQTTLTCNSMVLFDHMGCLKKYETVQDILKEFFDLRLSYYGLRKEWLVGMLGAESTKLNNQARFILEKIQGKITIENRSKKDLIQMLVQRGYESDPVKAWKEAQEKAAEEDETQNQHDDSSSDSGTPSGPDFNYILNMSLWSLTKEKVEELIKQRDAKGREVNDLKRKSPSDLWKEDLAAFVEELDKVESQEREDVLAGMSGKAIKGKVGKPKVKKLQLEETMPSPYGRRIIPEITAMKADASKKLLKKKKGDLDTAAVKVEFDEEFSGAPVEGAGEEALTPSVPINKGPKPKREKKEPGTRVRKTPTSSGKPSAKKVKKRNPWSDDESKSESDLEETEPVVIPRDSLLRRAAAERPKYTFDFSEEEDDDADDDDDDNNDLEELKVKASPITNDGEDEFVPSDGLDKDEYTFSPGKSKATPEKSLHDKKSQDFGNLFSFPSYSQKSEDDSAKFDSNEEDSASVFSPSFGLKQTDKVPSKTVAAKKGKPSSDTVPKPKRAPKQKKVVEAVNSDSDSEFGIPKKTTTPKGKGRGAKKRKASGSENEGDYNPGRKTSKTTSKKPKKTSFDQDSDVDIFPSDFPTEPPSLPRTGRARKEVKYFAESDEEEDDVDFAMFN
assay_name: fluorescence anisotropy; 10 mM CaCl2; 50 mM Tris pH 8, 5% glycerol, 50 mM KCl, 1% Triton X-100, 100 µg/ml acetylated BSA, 20°C; HEX oligo printed as 1 µM; 10 mM MgCl2 or CaCl2 where described
applied_conditions: protein: recombinant; chain copies: 2; blunt; as printed S2 is not the exact complement of S1: 2 mismatches at S1 positions 34-35 (possible typo)
pKd: −log10 of the molar value.

binder	pKd
40 bp oligo AB (dsDNA) DNA 1: CGCAATCTGACAATGCGCTCATCGTCATCCTCGCGACGCG DNA 2: CGCGTGCCGAGGATGACGATGAGCGCATTGTCAGATTGCG	7.07
